- Tested on: MRSA isolates (S. aureus ATCC 33591, BAA-44, BAA-1707, BAA-1717, BAA-1720, BAA-1747, BAA-1754, BAA-1761, BAA-1763, BAA-1764, BAA-1766)
- Procedure Summary: Combination effects of compounds 7-11 and antibiotics on MRSA isolates (turbidity)
- Assay type: cell-based
- Conditions Used: MRSA ATCC BAA-1754
Readout Kind: combination effect with Oxacillin

Clc1ccc(Oc2c(-c3ccc(Cl)cc3)[nH]c3ccc(Cl)cc23)cc1 ... No Synergy
Clc1ccc(/N=N/c2c[nH]c3ccccc23)cc1 ... No Synergy
Clc1ccc(Oc2c(-c3ccc(Cl)cc3)[nH]c3ccccc23)cc1 ... No Synergy

----------
Listing of recorded MIC by entry.
- Tested on: VRE
- Procedure Summary: MIC against VRE
- Assay type: cell-based, Enterococcus faecalis
- Conditions Used: Enterococcus, TABLE 23, read-out: VRE MIC

Brc1ccc(/N=N/c2c[nH]c3ccccc23)cc1 ... 2 µM
CCn1cc(C(=O)O)c(=O)c2cc(F)c(N3CCNCC3)cc21 [Norfloxacin, reference compound] ... 2.5 µg/mL
C[C@H]1c2cccc(O)c2C(=O)C2=C(O)[C@]3(O)C(=O)C(C(N)=O)=C(O)[C@@H](N(C)C)[C@@H]3[C@@H](O)[C@@H]21 [Doxycycline, reference compound] ... 0.25 to 0.5 µg/mL

**Query** If you can, please state the reported MIC value of Cc1onc(-c2ccccc2)c1C(=O)N[C@@H]1C(=O)N2[C@@H]1SC(C)(C)[C@@H]2C(=O)O [Oxacillin, reference compound] .
**Result** 20 to 40 µg/mL

**Query** If you can, please state the reported MIC value of Clc1ccc(Oc2c(-c3ccc(Cl)cc3)[nH]c3ccccc23)cc1 .
**Result** 10 to 20 µM

**Query** If you can, please state the reported MIC value of NC[C@H]1O[C@H](O[C@H]2[C@H](O)[C@@H](O[C@H]3O[C@H](CO)[C@@H](O)[C@H](N)[C@H]3O)[C@H](N)C[C@@H]2N)[C@H](N)C[C@@H]1O [Tobramycin, reference compound] .
**Result** > 200 µg/mL

----------
- Procedure Summary: MIC against MRSA isolates
- Assay type: cell-based, S. aureus
- Conditions Used: Staphylococcus aureus, MRSA (ATCC BAA-44); TABLE 21; read-out: MRSA MIC
- Method: The MICs of S. aureus ATCC 33591, BAA-44, BAA-1707, BAA-1717, BAA-1720, BAA-1747, BAA-1754, BAA-1761, BAA-1763, BAA-1764, and BAA-1766 were measured using a cell concentration of about 5×10^5 colony forming units (CFU)/mL. In a 96-well microtiter plate, two-fold dilutions were made of each drug (starting with 100 μM) in 100 μL of a cell suspension in trypticase soy broth (TSB). […] The MICs were determined as the lowest concentration at which full visual inhibition was observed by the unaided eye.
Readout Kind: MIC (µM)
Express it in µM; write the number only.

Clc1ccc(Oc2c(-c3ccc(Cl)cc3)[nH]c3ccc(Cl)cc23)cc1 [Compound 11] ... 8

For the next question, use this compound.
**Query** If you can, please state the reported MIC value of Clc1ccc(Oc2c(-c3ccc(Cl)cc3)[nH]c3ccccc23)cc1 [Compound 10] .
**Result** 16

----------
- System: MES-SA/Dx5 (human uterine sarcoma grown in presence of doxorubicin)
- Procedure Summary: Light-activated killing of cell lines (IC50 with/without light)
- Assay type: cell-based
- Conditions Used: Homo sapiens, MES-SA/Dx5, MES-SA/Dx5 (no doxorubicin); no light; read-out: Compound IC50
Readout Kind: IC50 (µM)
Express it in µM; write the number only.

**Query** Find the measured IC50: item Fc1ccc(/C=C/c2[nH]c3ccccc3c2/C=C/c2ccc(F)cc2)cc1 , target or system MES-SA/Dx5 (human uterine sarcoma grown in presence of doxorubicin).
**Result** 57.2

----------
- Test system: MRSA isolates (S. aureus ATCC 33591, BAA-44, BAA-1707, BAA-1717, BAA-1720, BAA-1747, BAA-1754, BAA-1761, BAA-1763, BAA-1764, BAA-1766)
- Procedure Summary: Combination effects of compounds 7-11 and antibiotics on MRSA isolates (turbidity)
- Assay type: cell-based
- Conditions Used: MRSA ATCC BAA-1766
Readout Kind: combination effect with Oxacillin

Clc1ccc(/N=N/c2c[nH]c3ccccc23)cc1 ... Synergy
Clc1ccc(Oc2c(-c3ccc(Cl)cc3)[nH]c3ccccc23)cc1 ... No Synergy
Clc1ccc(Oc2c(-c3ccc(Cl)cc3)[nH]c3ccc(Cl)cc23)cc1 ... No Synergy
Brc1ccc(/N=N/c2c[nH]c3ccccc23)cc1 ... Synergy

----------
- Procedure Summary: MIC against MRSA isolates
- Assay type: cell-based, S. aureus
- Conditions Used: Staphylococcus aureus, MRSA (ATCC BAA-44); TABLE 21; read-out: MRSA MIC
Readout Kind: MIC (µM)
Express it in µM; write the number only.

Solved entries:
Clc1ccc(/N=N/c2c[nH]c3ccccc23)cc1 [Compound 9] ... 16
Brc1ccc(/N=N/c2c[nH]c3ccccc23)cc1 [Compound 8] ... 15

For the next question, use this molecule.
**Query** If you can, please state the reported MIC value of Clc1ccc(/C=C/c2[nH]c3ccccc3c2/C=C/c2ccc(Cl)cc2)cc1 [Compound 1] .
**Result** 400

----------
- Test system: MRSA isolates (S. aureus ATCC 33591, BAA-44, BAA-1707, BAA-1717, BAA-1720, BAA-1747, BAA-1754, BAA-1761, BAA-1763, BAA-1764, BAA-1766)
- Procedure Summary: Combination effects of compounds 7-11 and antibiotics on MRSA isolates (turbidity)
- Type: cell-based
- Conditions Used: MRSA ATCC BAA-1763
Readout Kind: combination effect with Oxacillin

Clc1ccc(Oc2c(-c3ccc(Cl)cc3)[nH]c3ccc(Cl)cc23)cc1 ... No Synergy
Brc1ccc(/N=N/c2c[nH]c3ccccc23)cc1 ... Synergy
Clc1ccc(Oc2c(-c3ccc(Cl)cc3)[nH]c3ccccc23)cc1 ... No Synergy
Clc1ccc(/N=N/c2c[nH]c3ccccc23)cc1 ... Synergy

----------
- Test system: MRSA isolates (S. aureus ATCC 33591, BAA-44, BAA-1707, BAA-1717, BAA-1720, BAA-1747, BAA-1754, BAA-1761, BAA-1763, BAA-1764, BAA-1766)
- Procedure Summary: Combination effects of compounds 7-11 and antibiotics on MRSA isolates (turbidity)
- Type: cell-based
- Conditions Used: MRSA ATCC BAA-1720
Readout Kind: combination effect with Oxacillin

Clc1ccc(/N=N/c2c[nH]c3ccccc23)cc1 [Compound 9] ... Synergy
Clc1ccc(Oc2c(-c3ccc(Cl)cc3)[nH]c3ccccc23)cc1 [Compound 10] ... No Synergy
Clc1ccc(Oc2c(-c3ccc(Cl)cc3)[nH]c3ccc(Cl)cc23)cc1 [Compound 11] ... No Synergy
Brc1ccc(/N=N/c2c[nH]c3ccccc23)cc1 [Compound 8] ... Synergy

----------
- System: U-87 MG (human brain gliobastoma)
- Procedure Summary: Light-activated killing of cell lines (IC50 with/without light)
- Type: cell-based
- Conditions Used: 2 min, U-87 MG (spheroids), white light 2 minutes, read-out: Compound + light IC50
Readout Kind: IC50 (nM)
Express it in nM; write the number only.

**Query** If you can, please state the reported IC50 value of Clc1ccc(/C=C/c2[nH]c3ccccc3c2/C=C/c2ccc(Cl)cc2)cc1 .
**Result** 450

----------
- System: MES-SA (human uterine sarcoma)
- Procedure Summary: Light-activated killing of cell lines (IC50 with/without light)
- Assay type: cell-based
- Conditions Used: 2 min, white light 2 minutes, read-out: Compound + light IC50
Readout Kind: pIC50
Interpret pIC50 as the negative base-10 log of the concentration measured in mol/L.

**Query** If you can, please state the reported pIC50 value of Clc1ccc(/C=C/c2[nH]c3ccccc3c2/C=C/c2ccc(Cl)cc2)cc1 [Compound 1] .
**Result** 6.44

----------
- Procedure Summary: MIC against MRSA isolates
- Assay type: cell-based, S. aureus
- Conditions Used: Staphylococcus aureus, MRSA isolate ATCC BAA-1763; read-out: MIC
- Protocol: The MICs of S. aureus ATCC 33591, BAA-44, BAA-1707, BAA-1717, BAA-1720, BAA-1747, BAA-1754, BAA-1761, BAA-1763, BAA-1764, and BAA-1766 were measured using a cell concentration of about 5×10^5 colony forming units (CFU)/mL. In a 96-well microtiter plate, two-fold dilutions were made of each drug (starting with 100 μM) in 100 μL of a cell suspension in trypticase soy broth (TSB). […] The MICs were determined as the lowest concentration at which full visual inhibition was observed by the unaided eye.
Listing of recorded MIC by entry.
Express it in µM; write the number only.

Solved entries:
Clc1ccc(Oc2c(-c3ccc(Cl)cc3)[nH]c3ccc(Cl)cc23)cc1 ... 50
Brc1ccc(/N=N/c2c[nH]c3ccccc23)cc1 ... 6.3

**Query** If you can, please state the reported MIC value of Clc1ccc(/N=N/c2c[nH]c3ccccc23)cc1 .
**Result** 12.5

Provenance of the data: patent US9834514B2
